System: DeltatarO mutant
Protocol Description: S. aureus survival, RN4220 and DeltatarO strains – OD600, teichoic acid synthesis inhibitors, primary screen (AID 463173)
Condition Details: S. aureus RN4220 wild type/DeltatarO growth, OD600, 18 h, active compounds read low, screened at 18.75 µg/mL (by protocol)
Screen size: about 52,000 compounds; about 4,300 (8.3%) were called active. For the sample, actives were picked, then their nearest neighbours and some compounds at random.
For each entry below, report its survival value.
Give bare numbers, in %.

Solved entries (count: 4):
molecule=COc1cc2c(cc1NC(=O)COc1cc(C)ccc1C)oc1ccccc12 reported_property=survival number=79
molecule=O=C(Cn1cc(S(=O)(=O)Cc2ccccc2F)c2ccccc21)NCc1ccccc1 reported_property=survival number=87
molecule="CCOC(=O)c1cc2c(=O)n3ccccc3nc2n(CC2CCCO2)c1=NC(=O)c1ccccc1OCC (stereo not given)" reported_property=survival number=51
molecule="CCOC(=O)c1cc2c(=O)n3ccccc3nc2n(CC2CCCO2)c1=NC(=O)c1ccccc1Br (stereo not given)" reported_property=survival number=47

Batch of 7 molecules: report survival for each.
1. Cc1ccc(Nc2nc3ccc(C(=O)c4ccccc4)cc3n3c(C)nnc23)c(C)c1
2. COc1ccc(C(CNC(=O)COc2ccc(Cl)c(C)c2)N2CCOCC2)cc1 (stereo not given)
3. N#Cc1nc(-c2ccc(COc3ccc(Cl)cc3)o2)oc1N1CCN(c2ccccc2)CC1
4. COc1ccc(Cl)cc1NC(=O)NCc1noc2ccccc12
5. Cc1ccc2cccc(NC(=O)C(C)Oc3ccc(C)c(C)c3)c2n1 (stereo not given)
6. COc1cc2c(cc1NC(=O)COc1ccc(Cl)cc1Br)oc1ccccc12
7. COc1ccc(-c2nc3ccccc3o2)cc1NC(=O)C(C)Oc1ccc(Cl)cc1Cl (stereo not given)

105
63
64
35
56
51
38

Could I get survival for every one of these entries?
1. Cc1nc2c3ccccc3nc(NNC(=O)CCC(=O)N3CCN(c4ccccc4F)CC3)n2n1
2. CCOC(=O)c1cc2c(=O)n3ccccc3nc2n(CC2CCCO2)c1=NC(=O)c1ccc(F)cc1 (stereo not given)
3. CN(C)c1ccc(C(CNC(=O)COc2ccc(Cl)cc2)N2CCOCC2)cc1 (stereo not given)
4. CCOC(=O)c1cc2c(=O)n3ccccc3nc2n(CC2CCCO2)c1=NC(=O)c1ccc(OC)cc1OC (stereo not given)
5. CCN(c1ccc(OC)cc1)S(=O)(=O)c1ccc2[nH]c3c(c2c1)CCCCC3
6. CCOC(=O)c1cc2c(=O)n3ccccc3nc2n(CC2CCCO2)c1=NC(=O)c1ccc(OCC)cc1 (stereo not given)
7. COc1ccccc1-c1nc2c3c(-c4ccccc4)c(-c4ccccc4)oc3ncn2n1
8. COc1cc2c(cc1NC(=O)C(C)Oc1ccc(Cl)cc1Cl)oc1ccccc12 (stereo not given)

79
54
55
38
80
51
70
38

Reported survival, molecule CCOC(=O)c1cc2c(=O)n3ccccc3nc2n(CC(C)C)c1=NC(=O)c1c(-c2c(F)cccc2Cl)noc1C : ____
165

* * *

Test system: DeltatarO mutant
Protocol Description: S. aureus survival, RN4220 and DeltatarO strains – OD600, teichoic acid synthesis inhibitors, primary screen (AID 463173)
Condition Details: S. aureus RN4220 wild type/DeltatarO growth, OD600, 18 h, active compounds read low, screened at 18.75 µg/mL (by protocol)
About 4,300 (8.3%) of roughly 52,000 compounds were called active. For the sample, actives were picked, then their nearest neighbours and some compounds at random.
just bin them by survival: bottom: < 60%; middle: ≥ 60% and < 90%; top: ≥ 90%

Answered cases to consult:
molecule=Cc1cc(C)n(-c2nnc(Nc3ccc(C(C)C)cc3)c3ccccc23)n1 assigned_label=middle
molecule="Cc1cc(OCC(=O)NC(Cc2c[nH]c3ccccc23)C(=O)O)ccc1Cl (stereo not drawn)" assigned_label=bottom
molecule=Cc1ccc(CSCCC(=O)NCc2ccc(F)cc2Cl)cc1 assigned_label=top

For the record C/C(=N\NC(N)=O)C1CC(Cc2ccccc2)C(=O)O1 (stereo not drawn) , report the class its survival corresponds to.
bottom

Band for COC(=O)C(Cc1c[nH]c2ccccc12)NC(=O)COc1ccc(Cl)cc1Cl (stereo not drawn) ?
bottom

Class? Entry: CCc1ccc(CNC(=O)Cn2nc(C)c3c(C)n(-c4ccc(C)cc4)nc3c2=O)cc1
middle

Every entry's value here was drawn from PubChem BioAssay AID463173.
